target: SpLsb1; assay: SPOT peptide array binding signal intensity (averaged, normalized) (arbitrary units (background-subtracted, floor 0; scale differs between SH3 domains)); higher = stronger binding of the SH3 domain to the peptide
metric: SPOT peptide array binding signal intensity
No unit in the answer, only the number.

The examples below pair each entry with its known result.
>>> print(df.to_string())
            binder   val
0  VAPPPLPNRQLPNLD  1020
1  ISRRRLPVIMHRLKM   1.5
2  EEEEEHPPLPARRKS    10

q: Return SPOT peptide array binding signal intensity (reported value) for this binder: SGVRLPAPPPPPRRG
a: 870

q: Return SPOT peptide array binding signal intensity (reported value) for this binder: VYTRTAFQIPGDDKI
a: 68.5
